Source of measurements: patent US20170050957A1

# pest or weed control at 35 g/ha annotations
Test system: Key Broadleaf Weed and Crop Species
assay-notes: Post-emergent Test II herbicidal activity (Table 15)
Format: in vivo
test-context: Amaranthus retroflexus, post-emergence, 336 h, redroot pigweed (Amaranthus retroflexus), 35 g ai/ha, 14 d, read-out: Visual Growth Reduction (%) 14 Days After Application, AMARE
observed-property: pest or weed control at 35 g/ha

- COC(=O)c1nc(-c2ccc3cc[nH]c3c2F)nc(N)c1OC [Compound 1.34]: 0 to 29%
- Nc1c(F)c(-c2cc3[nH]ccc3cc2F)nc(C(=O)O)c1Cl [Compound 1.14]: 75 to 84%
- COC(=O)c1nc(-c2ccc3cc[nH]c3c2)cc(N)c1Cl [Compound 1.21]: 0 to 29%
- COC(=O)c1nc(-c2ccc3c(N(C)C)noc3c2)c(F)c(N)c1Cl [Compound 8.01]: 0 to 29%
- COC(=O)c1nc(-c2ccc(Cl)c3occc23)nc(N)c1OC [Compound 2.21]: 95 to 100%
- COC(=O)c1nc(-c2c(F)cc3cc[nH]c3c2F)cc(N)c1Cl [Compound 1.27]: 60 to 74%
- COC(=O)c1nc(-c2ccc3occc3c2)nc(N)c1OC [Compound 2.06]: 75 to 84%
- Nc1c(F)c(-c2ccc3occc3c2)nc(C(=O)O)c1Cl [Compound 2.02]: 75 to 84%
- COC(=O)c1nc(-c2ccc3cc[nH]c3c2)c(C)c(N)c1Cl [Compound 1.28]: 0 to 29%
